In this section, each of the compounds is paired with its reported cell viability.
Test system: Vero E6
Assay: cell viability relative to DMSO; higher = less toxic
Conditions: 72 h; 100 nM
Unit % implied. Number only.

// worked examples, cell viability included
CC(C(=O)O)c1ccc2c(c1)CC(=O)c1ccccc1S2 (stereo not drawn)    90.9
COc1ccc(C(=O)NCc2ccc(OCCN(C)C)cc2)cc1OC [itopride]    99.8
COc1ccc(Cn2ccc3ccc(C(=O)NO)cc32)cc1    104

I would be grateful if you could share the reported cell viability for Oc1cccc(Nc2ncc(F)c(Nc3cccc(O)c3)n2)c1 .
99.9

What about this compound? CC1Cc2ccccc2N1NC(=O)c1ccc(Cl)c(S(N)(=O)=O)c1 (stereo not drawn) [indapamide]
103

* * *

Test system: HepG2
Experiment: cell viability relative to DMSO; higher = less toxic
Conditions: 72 h; 10 nM
measurement.type: cell viability (%)
Report only the number, with the unit % understood.

Known cell viability results, listed for orientation:
COc1ccc(-c2oc3cc(OC)ccc3c2C(=O)c2ccc(C#N)cc2)cc1    96.8
c1ccc(CCNc2nc(-c3ccccc3)cs2)cc1    96.9
CN(C(=O)Cc1ccccc1)[C@H](CN1CCCC1)c1ccccc1    93.6
CC(=O)OCC1=C(C(=O)O)N2C(=O)[C@@H](NC(=O)CS/C(=N/C(C)C)NC(C)C)[C@H]2SC1    89.3
COc1cc2c(c(OC)c1OC)-c1c(cc3c(c1OC)OCO3)CC(C)C(C)C2 (stereo not drawn)    99.3
O=C(NNc1ccccc1)c1ccncc1    109
Cc1cc(C(N)=O)ccc1-n1c(CCC(=O)O)ccc1-c1ccc(-n2ccnc2)cc1    89.6
Cc1cccc(Cc2c[nH]cn2)c1C    101
O=C(Nc1ccc(Cl)cc1)Nc1ccc(Cl)c(Cl)c1    88.1
COc1ccc(C(=O)NCc2ccc(OCCN(C)C)cc2)cc1OC [itopride]    96.2

Given the compound CCCc1c2oc(C(=O)O)cc(=O)c2cc2c(=O)cc(C(=O)O)n(CC)c12 , what is its reported cell viability?
86.5

Another compound: COc1cccc(-c2ccc(NC(=O)C3=C(C(=O)O)CCC3)c(F)c2)c1
89.4

* * *

System: Caco-2
Assay: drug sensitivity score (DSS) for viability; higher = more toxic; extreme values may be limits of the assay
Conditions: 72 h
Counter-ions that a name gives are not always drawn.
measurement.type: drug sensitivity score
Reply: number alone, nothing else.

CC(C)c1cccc2c1OC(C(C)C)C(=S)N2CC(=O)O (stereo not drawn) [AD-5467]    0
CC(C)(CO)[C@@H](O)C(=O)NCCC(=O)O [pantothenic-acid]    2.4
O=C(O)c1ccccc1NCCc1ccccc1 [tromaril]    0
C[N+](C)(C)CCOP(=O)(O)OC[C@H](O)CO [choline-alfoscerate]    0
COc1cc(OC)c(OC)cc1C=O [asaraldehyde]    0
CC(C)c1nnc(-c2ccc(-c3ccccc3)nc2)n1-c1cccc2nonc12 [ASP-2535]    0

So what's the measured drug sensitivity score for this one? Cc1ccc(/N=C/N(C)/C=N/c2ccc(C)cc2C)c(C)c1 [amitraz]
0

Next compound up: Cc1cccn2c(=O)c(-c3nnn[nH]3)cnc12 [pemirolast]
0

Now this one: CNc1nc(-c2ccc3c(N)n[nH]c3c2)cc(N2C[C@@H](C(=O)NC3CCCCC3)CC[C@H]2C)n1
4.8

// same read-out, input: C=C1/C(=C\C=C2/CCC[C@]3(C)[C@@H]([C@H](C)CCCC(O)(C(F)(F)F)C(F)(F)F)CC[C@@H]23)C[C@@H](O)C[C@@H]1O [falecalcitriol]
0

What do you get for CCCCCCCCCCCCCCCC(=O)OC[C@H](COP(=O)([O-])OCC[N+](C)(C)C)OC(=O)CCCCCCCCCCCCCCC [colfosceril-palmitate] ?
1.9

Consider next the compound Cc1oc2nc3c(c(NC(=O)CN4CCCC4=O)c2c1C)CCCC3 [BCI-540] in the same way.
0

Then what about the compound CCN1CCN(c2ccc(C(C)(C)NC(=O)c3cc4[nH]c5ccccc5c(=O)c4cc3F)cn2)CC1 ?
0

How about O=C1CC[C@@]2(O)[C@H]3Cc4ccc(O)c5c4[C@@]2(CCN3CC2CC2)[C@H]1O5 [NALTREXONE HYDROCHLORIDE] ?
0

Param item: Cc1cc(CCCOc2c(C)cc(-c3noc(C(F)(F)F)n3)cc2C)on1 [pleconaril]
0

Item: O=C(O[C@H]1CN2CCC1CC2)N(Cc1cc(F)c(F)c(F)c1)c1cccc(F)c1 [tarafenacin]
0

Cn1ccnc1S [methimazole] , same question.
0

Moving on to CN(Cc1cccc(-c2ccccc2)c1)C(=O)Oc1ccc(-c2ccc(C(N)=O)cc2)cc1 [WWL-123]
0.4
